Biological target: T1, human ENA-78 (human, UniProt P42830 37-114, limits assumed)
T1 sequence (looked up): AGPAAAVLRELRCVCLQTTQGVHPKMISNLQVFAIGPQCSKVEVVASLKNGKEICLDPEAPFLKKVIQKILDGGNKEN
Assay: cell-based or functional assay

# binder, unit-symbol, FLIPR IC50
rows = [
    ("1A1.4C6 (antibody, IgG1, V domains shown) VH: EVQLQQSGPELVKPGASVKISCKASGYTFIDYYMNWVKQSQGKSLEWIGDVNPDDGDTTYNQQFKDKATLTVDKSSSTAYMELRSLTSEDSAVYYCARDDRTSGYFDVWGTGTTVTVSS VL: DIQMTQSTSSLSASLGDRVTISCRASQDIRNYLNWFQQKPDGTVKLLIYYTSIVHSRVPSRFSGSGSGTDYSLTINNLDQEDIATYFCQQANTLPWTFGGGTKLETK", "µg/mL", 12.3),
]
